# Tested on: PC-3
# experimental_details: Cytotoxicity against human PC3 cells by colorimetric method
# Assay type: functional, cell-based
property_measured: pIC50
pIC50 field: float, defined as -log10 of concentration (mol/L).

Inquiry: Any idea what its pIC50 is? The compound is COc1cccc2c1C(=O)c1c(O)c3c(c(O)c1C2=O)C[C@@](O)(C(=O)CO)C[C@@H]3O[C@H]1C[C@H](N)[C@H](O)[C@H](C)O1 [DOXORUBICIN]
Reply text: 6.39

Inquiry: Name the recorded pIC50 for COc1cc2oc(C)cc(=O)c2c(O)c1OC [STELLATIN] .
Reply text: 4.69

Inquiry: Looking for the measured pIC50 of CC(=O)O[C@H]1C2=COC(C)=CC2=C(CC2=C3C=C(C)OC=C3[C@H](OC(C)=O)[C@@](C)(OC(C)=O)C2=O)C(=O)[C@]1(C)OC(C)=O , can you help?
Reply text: 4.48

Inquiry: Bench note: what pIC50 did CC1=CC2=C(Cc3c(O)c(C)c4c(c3O)C(=O)OC(C)C4)C(=O)[C@](C)(O)[C@@H](O)C2=CO1 (some centres not stated) show?
Reply text: 5.15

Inquiry: # get_value(readout='pIC50', item= CC1=CC2=C(CC3=C4C=C(C)OC=C4[C@H](O)[C@@](C)(O)C3=O)C(=O)[C@](C)(O)[C@@H](O)C2=CO1 )
Reply text: 5.00
